Data provenance is the supplement of paper PMC10883282.

Tested on: A204
Test: relative viability vs DMSO control (72 h) (fraction); higher = more viable cells
Conditions: 0.04115 µM
Provide the recorded relative viability for the entries that follow.
Give bare numbers.

molecule: CC1(C)CC=C(c2nc(C3CC(C)(C)OC(C)(C)C3)ccc2NC(=O)c2nc(C#N)c[nH]2)CC1 [Edicotinib]
relative viability: 1.06
//
molecule: Cc1cccc(-c2nn3c(c2-c2ccnc4ccc(C(N)=O)cc24)CCC3)n1 [Galunisertib]
relative viability: 1
//
molecule: CCC(=O)N1CC[C@H](Nc2ncnc3c2CN(c2cnc(OC)c(C(F)(F)F)c2)CC3)C1 [Leniolisib]
relative viability: 1.02
//
molecule: CC(C)(O)CNc1nc(Nc2ccnc(C(F)(F)F)c2)nc(-c2cccc(C(F)(F)F)n2)n1 [Enasidenib]
relative viability: 1.11
//
molecule: N#CCNC(=O)c1ccc(-c2ccnc(Nc3ccc(N4CCOCC4)cc3)n2)cc1 [Momelotinib]
relative viability: 1.06

input: // fetch relative viability given entry O=c1sn(-c2cccc3ccccc23)c(=O)n1Cc1ccccc1 [Tideglusib]
output: 1.11
